Assayed System: Calcium and integrin-binding protein 1 (Homo sapiens) (UniProt Q99828)
Sequence (Q99828 whole entry, looked up): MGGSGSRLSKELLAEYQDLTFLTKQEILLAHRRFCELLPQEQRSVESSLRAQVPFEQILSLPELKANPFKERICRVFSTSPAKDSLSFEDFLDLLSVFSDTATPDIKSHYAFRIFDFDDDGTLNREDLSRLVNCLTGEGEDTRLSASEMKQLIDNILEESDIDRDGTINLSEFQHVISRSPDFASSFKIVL
Procedure Text: Primary qHTS for Identification of Calcium Integrin Binding Protein 1 (CIB1) Competitor (AID 1508620);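 also: GST tagged CIB1 binding a fluorescein labelled alphaIIb integrin peptide tracer; top concentration of the series differs between compounds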
Setup Conditions: CIB1-GST / FITC-alphaIIb peptide fluorescence polarization; series mostly up to 114 µM
From the text: Assay Provider: Ulhas P. Naik, PhD Sidney Kimmel Medical College Thomas Jefferson University, Philadelphia, PA Primary function of platelets is to maintain hemostasis. At the site of vascular injury, platelets adhere to adhesive proteins such as collagen and von Willebrand factor. […] PROTOCOL TABLES SEQUENCE No. (1, 2, 3, etc.); […] […] 7; ViewLux Fluorescent Polization Read: excitation = 480(20) / emission = 540(25) S and P; FITC Dichroic mirror.
Records with an inconclusive call do not appear. Activity calls are given as the source filed them. Calls follow the shape of the dose curve; as a rule, active = well fitted inhibition curve with a large enough effect; inconclusive = small, poorly fitted or top-dose-only effect; inactive = flat fitted curve, though single readings scatter.
Measured Quantity: outcome

Example results:
* CCCC(=O)O[C@]1(C(=O)COC(=O)CC)CC[C@H]2[C@@H]3CCC4=CC(=O)CC[C@]4(C)[C@H]3[C@@H](O)C[C@@]21C | inactive
* C=CC[N+]1([C@H]2C[C@H]3[C@@H]4CC[C@H]5C[C@H](OC(C)=O)[C@@H](N6CCCCC6)C[C@]5(C)[C@H]4CC[C@]3(C)[C@H]2OC(=O)CC)CCCCC1 | inactive
* O=C(CS(=O)Cc1ccco1)NC/C=C\COc1cc(CN2CCCCC2)ccn1 (centres undefined) | inactive
* O=C1NC(c2cccc([N+](=O)[O-])c2)=CCN1c1ccccc1O | inactive
* COc1cc2c(cc1OC)CN(C(=O)[C@H](C)N[C@@H](CCc1ccccc1)C(=O)O)[C@H](C(=O)O)C2 | inactive
* O=C(O)CNC(=O)CNC(=O)CNC(=O)CSC(=O)c1ccccc1 | inactive
* CC(=O)O[C@@H]1C(=O)O[C@@H]2[C@H]1OC(=O)[C@@H]2OC(C)=O | inactive
* COc1ccc(-n2nc(CCC(=O)N(C)O)cc2-c2ccc(Cl)cc2)cc1 | inactive

// switching to the query compound
// query Answer with reported outcome of `O=C(CCOCCOCCOCCOCCC(=O)Nc1c(I)cc(I)c(C(=O)O)c1I)Nc1c(I)cc(I)c(C(=O)O)c1I`
// result inactive

---

Test system: CRL-7250
Procedure Text: Cytotoxic Profiling of Annotated Libraries Using Quantitative High-Throughput Screening (AID 1296008); also: nearly all actives have a fitted effect of over 60% in size
Setup Conditions: Five cell lines viability, CellTiter-Glo ATP luminescence, 48-72 h
Records with an inconclusive call do not appear. Calls of active or inactive are those of the source. Calls follow the shape of the dose curve; as a rule, active = well fitted inhibition curve with a large enough effect; inconclusive = small, poorly fitted or top-dose-only effect; inactive = flat fitted curve, though single readings scatter.
Pick from active, inactive when you respond.

Answered cases to consult:
- C1=CC2C3C=CC(C3)C2C1 (stereo not given): inactive
- Cc1cnc(NS(=O)(=O)c2ccc(N)cc2)nc1: inactive

// query Hello, I am checking results. What call was entered for `CO[C@@H]1[C@@H](O[C@@H]2O[C@H](C)[C@@H](O[C@H]3C[C@@](C)(O)[C@@H](O)[C@H](C)O3)[C@H](N(C)C)[C@H]2O)[C@@H](CC=O)C[C@@H](C)[C@@H](O[C@@H]2CC[C@H](N(C)C)[C@@H](C)O2)/C=C/C=C/C[C@@H](C)OC(=O)C[C@H]1OC(C)=O` ?
// result inactive

// query Which outcome was entered for the molecule `Cc1ccc2ccc(Cl)cc2n1` in this test?
// result inactive

// query Identify the outcome logged in this assay for the molecule shown: `CCCCCCCCCCCCCCCC[n+]1ccccc1`
// result active

---

System: astro
Procedure Text: Drug repurposing screens with cells derived from glioblastoma tumor samples (AID 1345199); also: nearly all actives have a fitted effect of over 40% in size
Setup Conditions: viability, ATP luminescence, 48 h; series mostly up to 45.9 µM
Inconclusive results are not listed. Active and inactive are the calls of the source. The call rests on the fitted dose curve; in most records, active means well fitted inhibition curve with a large enough effect; inconclusive means small, poorly fitted or top-dose-only effect; inactive means flat fitted curve, though single readings scatter.
Pick one: YES for active, NO for inactive

• OCCOCCN1CCN(C(c2ccccc2)c2ccc(Cl)cc2)CC1 (centres undefined) = NO
• CC(NCCC(c1ccccc1)c1ccccc1)c1ccccc1 (centres undefined) = YES
• CCCCC(CC)COC(=O)c1ccccc1C(=O)O (centres undefined) = NO

// query Can you look up the reported call for `CCOC(=O)c1ccc(OCCN2C[C@H](O)[C@@H](O)[C@H](O)[C@H]2CO)cc1` for me?
// result NO

// query Outcome? `O=C(OCC1(COC(=O)c2cccnc2)CCCC(COC(=O)c2cccnc2)(COC(=O)c2cccnc2)C1O)c1cccnc1`
// result NO

// query Call for entry `CCOC(=O)OCC/C(SC(=O)OCC)=C(\C)N(C=O)Cc1cnc(C)nc1N` :
// result NO

---

Test system: OV90
Procedure Text: Primary qHTS to identify gynecologic anti-cancer compounds using libraries of approved drugs and bioactive compounds (AID 1345084); also: nearly all actives have a fitted effect of over 55% in size; also: potency is read from the fitted curve at half-maximal effect
Setup Conditions: Gynecologic cancer cell panel viability, ATPlite luminescence, 48 h; series mostly up to 57.5 µM
Records with an inconclusive call do not appear. Active and inactive are the calls of the source. The call rests on the fitted dose curve; in most records, active means well fitted cell-killing curve with a large enough effect; inconclusive means small, poorly fitted or top-dose-only effect, or effect the other way; inactive means flat fitted curve, though single readings scatter.
Measured Quantity: Potency

Worked cases, Potency given:
- O=C(Oc1ccccc1)c1ccccc1O: inactive
- CCCCCCCCCCCCCCCCCCN(C)C: inactive
- O=c1[nH]c2ccccc2c(=O)n1CCCl: inactive
- OC1(c2ccc(Cl)cc2)CCNCC1: inactive
- CCN1CCN(c2cc(-c3ccc(F)cc3)c3c(n2)CCCCCC3)CC1: inactive

// for each compound in input: emit Potency
1. CCOC(=O)O[C@]1(C(=O)OCCl)CC[C@H]2[C@@H]3CCC4=CC(=O)C=C[C@]4(C)[C@H]3[C@@H](O)C[C@@]21C
2. O=C1NC(c2cccc([N+](=O)[O-])c2)=CCN1c1ccccc1O
3. Cc1nc([N+](=O)[O-])cn1-c1ccc([N+](=O)[O-])cc1
4. CNC(=O)c1c(I)c(NC(C)=O)c(I)c(C(=O)O)c1I
5. CCCCCCCCCCCCCCCC[N+](C)(C)Cc1ccccc1

// result
inactive
inactive
inactive
inactive
25.1 µM (active)

Working through the 2 compounds below one at a time, give Potency for each.
1. Cc1ccc(Cl)c(OCC(O)CNC(C)(C)C)c1 (configuration not stated)
2. CNC[C@H](O)[C@@H](O)[C@H](O)[C@H](O)CO

// result
["inactive", "inactive"]

---

Procedure Text: qHTS of pediatric cancer cell lines to identify multiple opportunities for drug repurposing: Primary screen for LAN-5 cells (AID 1347100)
Setup Conditions: LAN-5 neuroblastoma viability, CellTiter-Glo luminescence, 48 h; series mostly up to 46 µM
Records with an inconclusive call do not appear. Activity calls are given as the source filed them. The call rests on the fitted dose curve; in most records, active means well fitted cell-killing curve with a large enough effect; inconclusive means small, poorly fitted or top-dose-only effect; inactive means no such curve, though single readings can be large or run the other way. Where a SMILES comes first, the peptide text is derived from it.
Please reply with one of these outcomes: T = active, F = inactive

// query Record request — test call for `CC(C)(C)c1ccc(O)c(O)c1`
// result T

// query Hey, what did the test say about `C[N+](C)(CCOc1ccccc1)Cc1cccs1` ?
// result F

// query Could you check what this test reported for `c1ccc(C(O[C@H]2CCCN(CCc3ccc4c(c3)OCO4)C2)c2ccccc2)cc1` ?
// result F

// query What was the test verdict on `O=C(O)Cn1c(=O)n(Cc2ccc(Br)cc2F)c(=O)c2ccc(Cl)cc21` ?
// result F

// query Per the records of this test, what outcome belongs to CC(=O)N[C@@H](CO)C(=O)N[C@@H](CC(=O)O)C(=O)N[C@@H](CCCCN)C(=O)N1CCC[C@H]1C(=O)O (Ac-SDKP-OH) ?
// result F

// query Which outcome was assigned to `Cc1cc(CCCOc2c(C)cc(-c3noc(C(F)(F)F)n3)cc2C)on1` in this test?
// result F

// query What was the test verdict on Cc1cccc(OCC(O)CNC(C)(C)C)c1C (stereo unspecified) ?
// result F

// query Called result for `CCOc1c(N2CCOCC2)cnn(C)c1=O`
// result F

// query In this assay, the call recorded for O=C(C1CCCCC1)N1CC(=O)N2CCCc3ccccc3C2C1 (stereo unspecified) was what?
// result F

// query Could you please tell me the result logged for `C[C@H]1NCc2cc(-c3ccc4c(=O)c(C(=O)O)cn(C5CC5)c4c3OC(F)F)ccc21` in this assay?
// result F

// query Status in this test for `CCN(CC)CC(=O)Nc1c(C)cccc1C(=O)OC` ?
// result F

---

System: SKOV3
Procedure Text: Primary qHTS to identify gynecologic anti-cancer compounds using libraries of approved drugs and bioactive compounds (AID 1345084); also: nearly all actives have a fitted effect of over 55% in size
Setup Conditions: Gynecologic cancer cell panel viability, ATPlite luminescence, 48 h; series mostly up to 57.5 µM
Inconclusive results are not listed. Calls of active or inactive are those of the source. Calls come from the whole dose curve; as a rule, active = well fitted cell-killing curve with a large enough effect; inconclusive = small, poorly fitted or top-dose-only effect, or effect the other way; inactive = flat fitted curve, though single readings scatter.
Just give me one of these, please: y = active, n = inactive

Check out these entries, answers already filled in.
• O=C(c1ccco1)N1CCNCC1 = n
• COc1ccc2c(c1)c(CC(=O)OC/C=C(\C)CC/C=C(\C)CCC=C(C)C)c(C)n2C(=O)c1ccc(Cl)cc1 = n
• CCC[C@H](N[C@@H](C)C(=O)N1[C@H](C(=O)O)C[C@@H]2CCCC[C@@H]21)C(=O)OCC = n

// query So what was the verdict on `Oc1ccccc1-c1nnco1` in this test?
// result n

// query Returns: the outcome recorded for `O=C(O)Cc1ccccc1Oc1ccc(Cl)cc1Cl` in this assay.
// result n

// query // outcome(item) with item = COc1cc(C(=O)OC(COCCC(C)C)CN2CCOCC2)cc(OC)c1OC (centres undefined)
// result n

// query Which result was noted for this compound in the test: `O=C(Oc1ccccc1)c1ccccc1O`
// result n

// query Identify the outcome logged in this assay for the compound shown: `CNC(=O)c1cnn(-c2nc(N)c3ncn([C@@H]4O[C@H](CO)[C@@H](O)[C@H]4O)c3n2)c1`
// result n

// query Outcome logged for CC(C(O)c1ccccc1)N(C)CCOC(c1ccccc1)c1ccccc1 (centres undefined) in this assay:
// result y

// query Tell me the recorded outcome of this test for O=C(C1CCCCC1)N1CC(=O)N2CCCc3ccccc3C2C1 (centres undefined) .
// result n

// query What classification did `O=C(OCC1(COC(=O)c2cccnc2)CCCC(COC(=O)c2cccnc2)(COC(=O)c2cccnc2)C1O)c1cccnc1` end up with in this test?
// result n

// query Kindly provide the recorded test outcome for the following compound: `CC(=O)O[C@H]1CC[C@@]2(C)C(=CC[C@@H]3[C@@H]2CC[C@]2(C)C(C(C)=O)=CC[C@@H]32)C1`
// result n

// query Returns: the outcome recorded for `CO[C@]1(NC(=O)CSC(F)F)C(=O)N2C(C(=O)O)=C(CSc3nnnn3CCO)CO[C@H]21` in this assay.
// result n

// query Hi, do you know how `O=C(O)CCC(=O)OC[C@@H](NC(=O)C(Cl)Cl)[C@H](O)c1ccc([N+](=O)[O-])cc1` came out in this test?
// result n

// query Identify the outcome logged in this assay for the compound shown: `CCOC(=O)CN1CCCC1=O`
// result n

// query Tell me the assay call for CC(C)C(=O)Nc1cccc(C2CN3CCSC3=N2)c1 (centres undefined) please.
// result n

// query Would you mind telling me which call this test gave `O=C(O)c1ccc(OCCN2CCCCC2)cc1` ?
// result n
